# Test system: SK-OV-3 ovarian
# method: NCI tumour cell line growth inhibition, 48 h
TGI overview

Would you please look over these solved cases?
COc1ccc(/C=C(/c2ccccc2)c2c(C)cc(C)c(/C(=C\c3ccc(OC)cc3)c3ccccc3)c2N=Nc2cc(C)cc(C)c2)cc1	> 100 µM
CC/C(CC(=O)CCC(=O)Nc1ccc(C)c(C)c1)=N\NC(=O)C(N)=O	> 100 µM
COc1ccc(N(C(=O)NCCO)c2ccccc2)cc1	> 100 µM

# compound CCN(CC)CCNC(=O)c1nn(-c2ccc(Cl)cc2)c2c1CCc1cc(OC)ccc1-2 ; its TGI = 27.5 µM

# compound Cc1cc2c(cc1C)[n+](Cc1ccc3ccccc3n1)cn2Cc1ccc2ccccc2n1 ; its TGI = 4.13 µM

# compound CCCCCSC1C2C(=O)C(Br)=CC13CCNc1c(O)c4c5c(c13)=[N+]2CCC=5C=N4 (stereo not given) ; its TGI = 6.43 µM

# compound CCCCN1C(=O)CS/C1=N/Nc1nc2c([nH]1)c(=O)n(C)c(=O)n2C ; its TGI = > 100 µM

# compound COC(=O)C1C(O)C(C)C(O)OC1C(C)C(O)C(C)/C=C\C=C(/C)C(=O)Nc1c(C)c(OC(C)=O)c2c(c1O)C(=O)C(C)=C1OCOC(/C(C)=C/C(C)=O)=C12 (stereo not given) ; its TGI = 40.2 µM

# compound Clc1ccc(N2CCC(N3CCCC3)CC2)cc1-c1nc2ccccc2[nH]1 ; its TGI = > 67.9 µM

# compound COc1ccc(/C(=N/O)c2cc(OC)c(OC)c(OC)c2)c(OC)c1N ; its TGI = > 100 µM

# compound O=C(CCc1ccc(O)cc1)NCCCNC(=O)CCc1ccc(O)cc1 ; its TGI = > 100 µM

# compound COc1ccc(-c2nnc(Nc3nc(O)c(C4=c5cc(F)ccc5=NC4=O)s3)o2)cc1 ; its TGI = > 100 µM

# compound CC1(C)N=C(N)N=C(N)N1c1ccc(Cl)c(Cl)c1 ; its TGI = > 100 µM

# compound C[C@]12CC[C@@H]3c4ccc(O)cc4CC[C@H]3[C@@H]1CC[C@@H]2NS(=O)(=O)c1ccc2ccccc2c1 ; its TGI = 36.4 µM

# compound CC(=O)OCCOCCN1CCN(c2c(O)c3c(c(O)c2Cl)C(=O)C=CC3=O)CC1 ; its TGI = 6.06 µM

# compound O=C1CSC(C(N=Nc2ccc(Cl)cc2)c2nc3ccccc3[nH]2)=N1 (stereo not given) ; its TGI = > 100 µM

# compound C/C=C1\CCC2c3[nH]c4ccccc4c3CCN2C1 (stereo not given) ; its TGI = > 100 µM

# compound Cc1nc2ccccc2n1Cc1nnc2n1N=C(c1ccccc1)CS2 ; its TGI = > 100 µM

# compound COc1ccc(-c2cc(-c3ccccc3)nc3c2CC(=O)Nc2ccccc2-3)cc1OC ; its TGI = > 92.6 µM

# compound CC12CCC(O)CC1=CCC1C2CCC2(C)C(c3cccnc3)=CCC12 (stereo not given) ; its TGI = > 100 µM

* * *

# System: U251 CNS
# method: NCI tumour cell line growth inhibition, 48 h
TGI overview

Would you please look over these solved cases?
COc1ccc2c(c1)CCN1C3=C(CCC3)C(=O)C[C@@H]21	> 100 µM
COc1ccc(C#CC2=C(c3cc(OC)c(OC)c(OC)c3)C(=O)OC2)cc1	6.74 µM
Cc1cc2c(cc1C)[n+](Cc1ccc3ccccc3n1)cn2Cc1ccc2ccccc2n1	2.2 µM
CCCCCCCCCCCCCCCCOc1ccc(/C=C/C2=[N+](CCCl)CCO2)cc1	> 100 µM

Consider the record given below.
# compound Cc1nc2ccccc2c(=O)n1/N=C/c1ccc(N(C)C)cc1 ; its TGI = > 100 µM
